src = the NIST ThermoML archive (doi:10.1016/j.fluid.2015.02.018)

- protocol-notes: Molar enthalpy of transition or fusion
- condition-context: Crystal; DSC
parameter: Molar enthalpy of transition or fusion (kcal/mol)
Use kcal/mol as the unit, but write only the number.

CN1[C@@H](CC(=O)c2ccccc2)CCC[C@H]1C[C@H](O)c1ccccc1.Cl [(-)-lobeline hydrochloride]: 18.2
COc1ccc2c(c1)c(CC(=O)O)c(C)n2C(=O)c1ccc(Cl)cc1: 18
Cn1c(=O)c2[nH]cnc2n(C)c1=O.Cn1c(=O)c2[nH]cnc2n(C)c1=O.NCCN: 6.19

Okay, now this molecule:
Provide measured Molar enthalpy of transition or fusion value, entry: `OCCN1CCN(CCCN2c3ccccc3Sc3ccc(Cl)cc32)CC1`
10.8

* * *

Reported values of Normal melting temperature for individual entries
- condition-context: Crystal; DTA
Give a bare numeral; the unit °C is implied.

COc1ccc2c(c1)c(CC(=O)O)c(C)n2C(=O)c1ccc(Cl)cc1: 160.5
CN1[C@@H](CC(=O)c2ccccc2)CCC[C@H]1C[C@H](O)c1ccccc1.Cl [(-)-lobeline hydrochloride]: 193.2
OCCN1CCN(CCCN2c3ccccc3Sc3ccc(Cl)cc32)CC1 [perphenazine]: 93.7

Input Cn1c(=O)c2[nH]cnc2n(C)c1=O.Cn1c(=O)c2[nH]cnc2n(C)c1=O.NCCN [aminophylline] , output reported Normal melting temperature.
269.1
